Experiment: in vitro
Settings: human
result_type: IC50 at 3 days (nM)
Reply numerically in nM, unit not repeated.

Ask | I have this compound here, C=C(C)[C@H]1Cc2c(ccc3c2O[C@@H]2COc4cc(OC)c(OC)cc4[C@@H]2C3=O)O1 [Compound 7, (−)-rotenone] , and I need its recorded IC50 at 3 days.
Reply | 300

----------
Molecular target: p65 subunit of NF-κB (Homo sapiens)
Sequence (Q04206 whole entry): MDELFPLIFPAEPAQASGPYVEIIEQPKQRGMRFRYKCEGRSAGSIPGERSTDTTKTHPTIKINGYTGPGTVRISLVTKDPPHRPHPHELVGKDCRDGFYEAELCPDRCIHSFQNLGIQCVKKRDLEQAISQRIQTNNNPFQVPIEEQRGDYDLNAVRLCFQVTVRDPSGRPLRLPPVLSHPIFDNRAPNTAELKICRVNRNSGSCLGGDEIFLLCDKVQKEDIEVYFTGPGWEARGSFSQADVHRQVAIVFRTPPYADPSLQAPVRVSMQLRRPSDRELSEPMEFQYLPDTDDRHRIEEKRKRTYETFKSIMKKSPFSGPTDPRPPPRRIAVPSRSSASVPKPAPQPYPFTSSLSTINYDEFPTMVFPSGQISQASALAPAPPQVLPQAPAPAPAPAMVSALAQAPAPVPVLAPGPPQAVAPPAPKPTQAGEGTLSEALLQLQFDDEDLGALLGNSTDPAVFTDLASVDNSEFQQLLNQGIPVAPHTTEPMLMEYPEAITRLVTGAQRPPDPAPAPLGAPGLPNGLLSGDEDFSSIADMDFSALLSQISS
Assay: cell-based
Format: cell-based
Conditions: read-out: NF-κB p65 inhibition IC50; in HeLa cells
pIC50: −log10 of the molar value.
result_type: pIC50

Ask | I have this compound here, COc1cc2c(c3c1OC(C)(C)C=C3)O[C@H]1COc3cc4c(cc3[C@@]1(O)C2=O)OCO4 [Compound 1] , and I need its recorded pIC50.
Reply | < 5.00
